- Assay overview: Human microsome stability assay
- Format: in vitro ADME
- Condition parameters: 1 μM compound, 0.5 mg/mL microsomal protein, 37° C.; detection limit 6.15 mL/min/kg
Property measured: Clearance of human microsome

> print(dat)
                                entry.smiles        obs.value
 1  CS(=O)(=O)C1(c2ccc(C(=O)NC34CC(c5nnn(-c6ccc(Cl)cc6)n5)(C3)C4)o2)CC1  ≤6.15 mL/min/kg
 2  CS(=O)(=O)C1(c2ccc(C(=O)NC34CC(c5nc(-c6ccc(Cl)cc6)ns5)(C3)C4)o2)CC1    8.8 mL/min/kg
 3  CS(=O)(=O)C1(c2ccc(C(=O)NC34CC(c5ncc(-c6ccc(Cl)cn6)s5)(C3)C4)o2)CC1  15.39 mL/min/kg
 4  CS(=O)(=O)C1(c2ccc(C(=O)NC34CC(c5cnn(-c6ccc(Cl)cc6)n5)(C3)C4)o2)CC1  ≤6.15 mL/min/kg
 5  CS(=O)(=O)C1(c2ccc(C(=O)NC34CC(c5nc(-c6ccc(Cl)cn6)cs5)(C3)C4)o2)CC1  ≤6.15 mL/min/kg
 6  CS(=O)(=O)C1(c2ccc(C(=O)NC34CC(c5nc(-c6ccccc6)ns5)(C3)C4)o2)CC1  ≤6.15 mL/min/kg
 7  CS(=O)(=O)C1(c2ccc(C(=O)NC34CC(c5csc(-c6ccc(Cl)cc6)n5)(C3)C4)o2)CC1  ≤6.15 mL/min/kg
 8  CS(=O)(=O)C1(c2ccc(C(=O)NC34CC(c5cn(-c6ccc(Cl)cc6)nn5)(C3)C4)o2)CC1  ≤6.15 mL/min/kg
 9  CS(=O)(=O)C1(c2ccc(C(=O)NC34CC(c5ncc(-c6ccccc6)s5)(C3)C4)o2)CC1  ≤6.15 mL/min/kg
10  CS(=O)(=O)C1(c2ccc(C(=O)NC34CC(c5nc(-c6ccccc6)cs5)(C3)C4)o2)CC1  ≤6.15 mL/min/kg
11  CS(=O)(=O)C1(c2nsc(C(=O)NC34CC(c5noc(-c6ccc(Cl)cc6)n5)(C3)C4)n2)CC1  14.14 mL/min/kg
12  CS(=O)(=O)C1(c2ccc(C(=O)NC34CC(c5nc(-c6ccc(Cl)cc6)cs5)(C3)C4)o2)CC1  ≤6.15 mL/min/kg
13  CS(=O)(=O)C1(c2ccc(C(=O)NC34CC(c5ncc(-c6cnc(Cl)cn6)s5)(C3)C4)o2)CC1   6.89 mL/min/kg
14  CS(=O)(=O)C1(c2ccc(C(=O)NC34CC(c5csc(-c6ccccc6)n5)(C3)C4)o2)CC1  ≤6.15 mL/min/kg
15  CS(=O)(=O)C1(c2ccc(C(=O)NC34CC(c5ncc(-c6ccc(Cl)cc6)s5)(C3)C4)o2)CC1  ≤6.15 mL/min/kg

----------
- Assay overview: Human microsome stability assay
- Assay type: in vitro ADME
- Condition parameters: 1 μM compound, 0.5 mg/mL microsomal protein, 37° C.; detection limit 6.15 mL/min/kg
Property measured: Clearance of human microsome

> print(dat)
                                   compound        obs.value
1  CS(=O)(=O)C1(c2ccc(C(=O)NC34CC(c5nc(C6CC6)cs5)(C3)C4)o2)CC1 [Example 14]  ≤6.15 mL/min/kg
2  CS(=O)(=O)C1(c2ccc(C(=O)NC34CC(c5nnc(-c6ccc(Cl)cc6)o5)(C3)C4)o2)CC1 [Example 28]  ≤6.15 mL/min/kg
3  NC(=O)c1cc(C(=O)NC23CC(c4nc(-c5ccc(Cl)cc5)no4)(C2)C3)ccn1 [Example 36]  11.99 mL/min/kg
4  CS(=O)(=O)C1(c2ccc(C(=O)NC34CC(c5nc(-c6cccc(Cl)c6)cs5)(C3)C4)o2)CC1 [Example 2]  ≤6.15 mL/min/kg
5  CS(=O)(=O)C1(c2nsc(C(=O)NC34CC(c5nc(-c6ccc(F)cc6)no5)(C3)C4)n2)CC1 [Example 35]  ≤6.15 mL/min/kg

----------
Attribute: TI (CC50/IC50 HBsAg)
- Test system: primary human hepatocyte (PHH)
- Assay overview: Cytotoxicity in PHH natural infection assay (Cell Counting Kit-8)
- Type: cell-based
- Condition parameters: therapeutic index; CC50 by CCK8 in PHH over HBsAg IC50
Property measured: TI (CC50/IC50 HBsAg)

> print(dat)
                                   compound                    assay.system  obs.value
1  CS(=O)(=O)C1(c2ccc(C(=O)NC34CC(c5nc(-c6ccccc6Cl)cs5)(C3)C4)o2)CC1 [Example 3]  primary human hepatocyte (PHH)       8.85
2  CS(=O)(=O)C1(c2ccc(C(=O)NC34CC(c5noc(-c6ccc(Cl)cc6)n5)(C3)C4)o2)CC1 [Example 40]  primary human hepatocyte (PHH)      46.00
3  CS(=O)(=O)C1(c2ccc(C(=O)NC34CC(c5cnn(-c6ccc(Cl)cc6)n5)(C3)C4)o2)CC1 [Example 30]  primary human hepatocyte (PHH)     148.67
4  CS(=O)(=O)C1(c2nsc(C(=O)NC34CC(c5cnn(-c6ccc(Cl)cc6)n5)(C3)C4)n2)CC1 [Example 60]  primary human hepatocyte (PHH)     261.76
5  CS(=O)(=O)C1(c2ccc(C(=O)NC34CC(c5nc(-c6ccc(Cl)cc6)no5)(C3)C4)o2)CC1 [Example 32]  primary human hepatocyte (PHH)     112.00
6  CS(=O)(=O)C1(c2ccc(C(=O)NC34CC(c5ncc(-c6ccc(Cl)c(Cl)c6)s5)(C3)C4)o2)CC1 [Example 21]  primary human hepatocyte (PHH)      29.86
7  CS(=O)(=O)C1(c2ccc(C(=O)NC34CC(c5nc(-c6ccc(Cl)cn6)cs5)(C3)C4)o2)CC1 [Example 10]  primary human hepatocyte (PHH)      31.11

----------
- Assay overview: Single dose pharmacokinetics (PK) study in male C57BL/6 mouse
- Format: in vivo
- Condition parameters: C57BL/6, plasma, mouse, IV dose 0.4 mg/kg, read-out: VSS
Property measured: Vd (L/kg)

> print(dat)
                               entry.smiles  property.measured  obs.value
1  CS(=O)(=O)C1(c2nsc(C(=O)NC34CC(c5nc(-c6ccc(Cl)cc6)no5)(C3)C4)n2)CC1                 Vd       0.93

----------
- Tested on: HBeAg
- Assay overview: microbe, parasite or virus in culture
- Type: cell-based, HBV
- Condition parameters: Hepatitis B virus, read-out: HBeAg IC50
Attribute: IC50
Property measured: IC50 (µM)

> print(dat)
                               entry.smiles  property.measured  obs.value
1  CS(=O)(=O)C1(c2nsc(C(=O)NC34CC(c5noc(-c6ccc(Cl)cc6)n5)(C3)C4)n2)CC1               IC50       0.08
2  CS(=O)(=O)C1(c2nsc(C(=O)NC34CC(c5cnn(-c6ccc(Cl)cc6)n5)(C3)C4)n2)CC1               IC50      0.017
3  CS(=O)(=O)C1(c2ccc(C(=O)NC34CC(c5nc(-c6cccc(Cl)c6)cs5)(C3)C4)o2)CC1               IC50        0.2
4  CS(=O)(=O)C1(c2ncc(C(=O)NC34CC(c5ncc(-c6ccc(Cl)cc6)s5)(C3)C4)o2)CC1               IC50       0.07

----------
- Tested on: primary human hepatocyte (PHH)
- Assay overview: Cytotoxicity in PHH natural infection assay (Cell Counting Kit-8)
- Assay type: cell-based
- Condition parameters: therapeutic index; CC50 by CCK8 in PHH over HBsAg IC50
Property measured: TI (CC50/IC50 HBsAg)

> print(dat)
                                   compound                    assay.system  relation.qualifier  obs.value
1  CS(=O)(=O)C1(c2ccc(C(=O)NC34CC(c5nc(-c6ccc(Cl)cc6)ns5)(C3)C4)o2)CC1 [Example 18]  primary human hepatocyte (PHH)                   =      39.05
2  CS(=O)(=O)C1(c2ccc(C(=O)NC34CC(c5csc(-c6ccccc6)n5)(C3)C4)o2)CC1 [Example 26]  primary human hepatocyte (PHH)                   =       8.91
3  CS(=O)(=O)C1(c2nsc(C(=O)NC34CC(c5ccnc(-c6ccc(Cl)cc6)n5)(C3)C4)n2)CC1 [Example 48]  primary human hepatocyte (PHH)                   =     127.43
4  CS(=O)(=O)C1(c2ncc(C(=O)NC34CC(c5nc(-c6ccc(Cl)cc6)cs5)(C3)C4)o2)CC1 [Example 6]  primary human hepatocyte (PHH)                   =      81.63
5  CS(=O)(=O)C1(c2nsc(C(=O)NC34CC(c5nc(-c6cccc(Cl)c6)cs5)(C3)C4)n2)CC1 [Example 4]  primary human hepatocyte (PHH)                   =      29.65
6  CS(=O)(=O)C1(c2ncc(C(=O)NC34CC(c5ncc(-c6ccc(Cl)cc6)s5)(C3)C4)o2)CC1 [Example 55]  primary human hepatocyte (PHH)                   =      89.00
7  CS(=O)(=O)C1(c2nsc(C(=O)NC34CC(c5ccn(-c6ccc(Cl)cc6)n5)(C3)C4)n2)CC1 [Example 43]  primary human hepatocyte (PHH)                   >     111.11
